pIC50: −log10 of the molar value.
OBSERVABLE: pIC50

Give pIC50 only, for C[C@@H]1C[C@H](N)C[C@H](c2ccncc2NC(=O)c2ccc(F)c3cc(-c4c(F)cccc4F)cnc23)C1 , using Serine/threonine-protein kinase pim-1 (Homo sapiens, UniProt P11309) data. > 8.00

----------
OBSERVABLE: IC50

Give IC50 only, for C[C@@H]1C[C@H](N)C[C@H](c2ccncc2NC(=O)c2ccc(F)c3cc(-c4c(F)cccc4F)cnc23)C1 , using Serine/threonine-protein kinase pim-2 (Homo sapiens, UniProt Q9P1W9) data. < 100 nM
